Test system: Influenza A virus
Test: Antiviral activity against Influenza A/PR8/34 (H1N1) virus infected in MDCK2 cells assessed as inhibition of virus reproduction by ELISA
Assay type: functional, organism-based
Conditions: A/Puerto Rico/8/1934(H1N1), MDCK-II
property: IC90

A selection of reference data follows.
CC(C)CCC[C@@H](C)[C@H]1CC[C@H]2[C@@H]3CC[C@H]4C[C@H](O)[C@@H](N)C[C@]4(C)[C@H]3CC[C@]12C :: 62 µM
CC(C)CCC[C@@H](C)[C@H]1CC[C@H]2[C@@H]3CC[C@H]4C[C@@H](CCN)CC[C@]4(C)[C@H]3CC[C@]12C :: 13.4 µM
CC(C)CCC[C@@H](C)[C@H]1CC[C@H]2[C@@H]3CC[C@H]4C[C@@H]([N+](C)(C)C)CC[C@]4(C)[C@H]3CC[C@]12C.[I-] :: ≥ 12.5 µM
CC(C)CCC[C@@H](C)[C@H]1CC[C@H]2[C@@H]3CC=C4C[C@@H](N)CC[C@]4(C)[C@H]3CC[C@]12C :: 11.4 µM
CC(C)CCC[C@@H](C)[C@H]1CC[C@H]2[C@@H]3CC[C@H]4C[C@H](N)CC[C@]4(C)[C@H]3CC[C@]12C :: ≥ 15 µM

Now consider a different compound.
Name the recorded IC90 of the compound listed here: CC(C)CCC[C@@H](C)[C@H]1CC[C@H]2[C@@H]3CC[C@H]4CCNCC[C@]4(C)[C@H]3CC[C@]12C
9.7 µM

Provenance of the data: ChEMBL document CHEMBL2417401
